Where do these numbers come from? They come from patent US20200390729A1.

Assay Overview: Ocular distribution of etamsylate following topical ocular single dose in rats
Type: in vivo, Sprague Dawley (SD) rat
Measurement Context: Sprague-Dawley, rat, retina, 1.26 mg, read-out: CDO μg/g tissue Retina
Description: Bioanalysis of CDO was performed depending on the type of matrix. In the case of plasma, proteins were precipitated using methanol. […] After centrifugation, samples were analyzed by UPLC-MS/MS. […] With regard to the mass spectrometric detection, the electrospray ionization source worked to record negative ions. […] The transition monitored for CDO was m/z 189.0→80.1 with a cone voltage of 45 V and collision energy of 25 eV. […]
Readout Kind: concentration at 0.25 h (µg/g)

INSERT INTO assay_data (compound, result_value) VALUES
  ('O=S(=O)(O)c1cc(O)ccc1O [CDO, Calcium dobesilate monohydrate]', 4.05);

* * *

Assay Overview: Ocular distribution of CDO in rats, single dose topical ocular vs. oral
Type: in vivo, Sprague Dawley (SD) rat
Measurement Context: Sprague Dawley, retina; rat, oral 200 mg/Kg = 40 mg, 0.25 h; read-out: CDO concentrations Retina
Readout Kind: concentration at 0.25 h (ng/g)

INSERT INTO results (molecule, units_text, result_value) VALUES
  ('O=S(=O)(O)c1cc(O)ccc1O [CDO, Calcium dobesilate monohydrate]', 'ng/g', 110);

* * *

Assay Overview: Ocular distribution of CDO in rats, single dose topical ocular vs. oral
Format: in vivo, Sprague Dawley (SD) rat
Measurement Context: Sprague-Dawley, optic nerve; rat, topical eye 10 mg/ml (eye drop of 10 μl) = 0.1 mg, 6 h; read-out: CDO concentrations Optic nerve
Readout Kind: concentration at 6 h (ng/g)

INSERT INTO results (molecule, result_value) VALUES
  ('O=S(=O)(O)c1cc(O)ccc1O [CDO, Calcium dobesilate monohydrate]', 250);

* * *

Assay Overview: Ocular distribution of CDO in rabbits, single dose topical ocular vs. oral
Type: in vivo, New Zealand White rabbit
Measurement Context: New Zealand White, optic nerve; rabbit, Topical eye administration 10 mg/ml = 0.3 mg, 3 h; read-out: CDO μg/g tissue Optic nerve
Procedure: In New Zealand White rabbit, weighing approximately 1.8 kg, CDO was administered by topical ocular instillation (33 μl/eye) at 10 mg/ml (composition 2 of Example 1), at 100 mg/ml (composition 5 of Example 1) or by oral gavage at 25 mg/kg in aqueous solution (from composition 1 of Example 1). […] Bioanalysis of CDO was performed depending on the type of matrix. […] After centrifugation, samples were analyzed by UPLC-MS/MS. […]
Readout Kind: concentration at 3 h (µg/g)

INSERT INTO measurements (molecule, readout_kind, units_text, result_value) VALUES
  ('O=S(=O)(O)c1cc(O)ccc1O [CDO, Calcium dobesilate monohydrate]', 'concentration at 3 h', 'µg/g', 0.65);

* * *

Assay Overview: Ocular distribution of CDO in rabbits, single dose topical ocular vs. oral
Assay type: in vivo, New Zealand White rabbit
Measurement Context: New Zealand White, optic nerve; rabbit, Oral 25 mg/Kg = 45 mg, 0.25 h; read-out: CDO μg/g tissue Optic nerve
Protocol: In New Zealand White rabbit, weighing approximately 1.8 kg, CDO was administered by topical ocular instillation (33 μl/eye) at 10 mg/ml (composition 2 of Example 1), at 100 mg/ml (composition 5 of Example 1) or by oral gavage at 25 mg/kg in aqueous solution (from composition 1 of Example 1). […] Bioanalysis of CDO was performed depending on the type of matrix. […] After centrifugation, samples were analyzed by UPLC-MS/MS. […]
Readout Kind: concentration at 0.25 h (µg/g)

INSERT INTO assay_data (compound, result_value) VALUES
  ('O=S(=O)(O)c1cc(O)ccc1O [CDO, Calcium dobesilate monohydrate]', 0.74);

* * *

Assay Overview: Ocular distribution of CDO in rabbits, single dose topical ocular vs. oral
Type: in vivo, New Zealand White rabbit
Measurement Context: New Zealand White, retina/choroid; rabbit, Topical eye administration 10 mg/ml = 0.3 mg, 0.25 h; read-out: CDO μg/g tissue Retina/Choroid
Readout Kind: concentration at 0.25 h

INSERT INTO measurements (molecule, result_value) VALUES
  ('O=S(=O)(O)c1cc(O)ccc1O [CDO, Calcium dobesilate monohydrate]', '0.27 µg/g');

* * *

Assay Overview: Ocular distribution of CDO in rabbits, single dose topical ocular vs. oral
Assay type: in vivo, New Zealand White rabbit
Measurement Context: New Zealand White, optic nerve; rabbit, Topical eye administration 10 mg/ml = 0.3 mg, 6 h; read-out: CDO μg/g tissue Optic nerve
Readout Kind: concentration at 6 h (µg/g)

INSERT INTO results (molecule, readout_kind, result_value) VALUES
  ('O=S(=O)(O)c1cc(O)ccc1O [CDO, Calcium dobesilate monohydrate]', 'concentration at 6 h', 0.45);

* * *

Assay Overview: Ocular distribution of CDO in rabbits, single dose topical ocular vs. oral
Assay type: in vivo, New Zealand White rabbit
Measurement Context: New Zealand White, optic nerve; rabbit, Topical eye administration 10 mg/ml = 0.3 mg, 1 h; read-out: CDO μg/g tissue Optic nerve
Readout Kind: concentration at 1 h (µg/g)

INSERT INTO results (molecule, result_value) VALUES
  ('O=S(=O)(O)c1cc(O)ccc1O [CDO, Calcium dobesilate monohydrate]', 0.76);

* * *

Assay Overview: Ocular distribution of CDO in rats, single dose topical ocular vs. oral
Format: in vivo, Sprague Dawley (SD) rat
Measurement Context: Sprague Dawley, retina; rat, topical eye 10 mg/ml (eye drop of 10 μl) = 0.1 mg, 0.25 h; read-out: CDO concentrations Retina
Readout Kind: concentration at 0.25 h (ng/g)

INSERT INTO results (molecule, readout_kind, result_value) VALUES
  ('O=S(=O)(O)c1cc(O)ccc1O [CDO, Calcium dobesilate monohydrate]', 'concentration at 0.25 h', 100);

* * *

Assay Overview: Ocular distribution of etamsylate following topical ocular single dose in rats
Assay type: in vivo, Sprague Dawley (SD) rat
Measurement Context: Sprague-Dawley, rat, optic nerve, 0.126 mg, read-out: CDO μg/g tissue Optic nerve
Readout Kind: concentration at 1 h (µg/g)

INSERT INTO assay_data (compound, readout_kind, units_text, result_value) VALUES
  ('O=S(=O)(O)c1cc(O)ccc1O [CDO, Calcium dobesilate monohydrate]', 'concentration at 1 h', 'µg/g', 8.13);

* * *

Assay Overview: Ocular distribution of CDO in rats, single dose topical ocular vs. oral
Assay type: in vivo, Sprague Dawley (SD) rat
Measurement Context: Sprague-Dawley, plasma; rat, topical eye 100 mg/ml (eye drop of 10 μl) = 1 mg, 3 h; read-out: CDO concentrations Plasma
Readout Kind: concentration at 3 h (ng/g)

INSERT INTO assay_data (molecule, readout_kind, units_text, result_value) VALUES
  ('O=S(=O)(O)c1cc(O)ccc1O [CDO, Calcium dobesilate monohydrate]', 'concentration at 3 h', 'ng/g', 280);

* * *

Assay Overview: Ocular distribution of CDO in rats, single dose topical ocular vs. oral
Type: in vivo, Sprague Dawley (SD) rat
Measurement Context: Sprague Dawley, vitreous humour/lens; rat, topical eye 10 mg/ml (eye drop of 10 μl) = 0.1 mg, 0.25 h; read-out: CDO concentrations Vitreous humour/lens
Readout Kind: concentration at 0.25 h (ng/g)

INSERT INTO measurements (compound, readout_kind, result_value) VALUES
  ('O=S(=O)(O)c1cc(O)ccc1O [CDO, Calcium dobesilate monohydrate]', 'concentration at 0.25 h', 1480);

* * *

Assay Overview: Ocular distribution of etamsylate following topical ocular single dose in rats
Format: in vivo, Sprague Dawley (SD) rat
Measurement Context: Sprague-Dawley, rat, retina, 1.26 mg, read-out: CDO μg/g tissue Retina
Readout Kind: concentration at 3 h (µg/g)

INSERT INTO assay_data (molecule, result_value) VALUES
  ('O=S(=O)(O)c1cc(O)ccc1O [CDO, Calcium dobesilate monohydrate]', 1.56);

* * *

Assay Overview: Ocular distribution of CDO in rats, single dose topical ocular vs. oral
Type: in vivo, Sprague Dawley (SD) rat
Measurement Context: Sprague Dawley, sclera; rat, topical eye 10 mg/ml (eye drop of 10 μl) = 0.1 mg, 1 h; read-out: CDO concentrations Sclera
Procedure: In Sprague Dawley (SD) rat, weighing approximately 200 g, CDO was administered by topical ocular instillation (10 μl/eye) at 10 mg/ml (composition 2 of Example 1), at 100 mg/ml (composition 5 of Example 1) or by oral gavage at 50 mg/kg, at 200 mg/kg or at 750 mg/kg in aqueous solution (from compositions 1, 3 and 4, respectively, of Example 1). […] Bioanalysis of CDO was performed depending on the type of matrix. […] After centrifugation, samples were analyzed by UPLC-MS/MS. […]
Readout Kind: concentration at 1 h (ng/g)

INSERT INTO results (compound, result_value) VALUES
  ('O=S(=O)(O)c1cc(O)ccc1O [CDO, Calcium dobesilate monohydrate]', 330);
